System: 935938-334-R-J1-PDC complex spheroid viability;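 also: spheroids exposed to drugs for seven days before viability read; 100% = DMSO vehicle control wells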
test.method.notes: Anticancer human tumor 935938-334-R-J1-PDC patient-derived small intestine adenocarcinoma cell line growth inhibition [POLQ]
assay.conditions: second compound 10 µM; first compound 0.0316 µM; stronger effect = lower value
quantity.kind: viability, T/C (%)
// units = %; emit number, no label

Solved entries (count: 4):
compound	target.of.assay	result.units	viability, T/C
CC1COCCN1c1cc(C2(O)CC3CCC(C2)O3)c2cnn(-c3ccn[nH]3)c2n1 (stereo not given) + Nc1ccc(C#CCN(C(=O)Cc2ncc(C(F)(F)F)cc2C(F)(F)F)c2ccc(F)cc2)nn1	935938-334-R-J1-PDC complex spheroid viability	%	94.7
CC[C@@]1(O)C(=O)OCc2c1cc1n(c2=O)Cc2cc3c(CN(C)C)c(O)ccc3nc2-1 + Nc1ccc(C#CCN(C(=O)Cc2ncc(C(F)(F)F)cc2C(F)(F)F)c2ccc(F)cc2)nn1	935938-334-R-J1-PDC complex spheroid viability	%	103
COc1cc2cc(C(=O)CCC(=O)O)sc2cc1OC + Cc1cccc(N(C)C(=O)C2C(O)CCN2c2nc(C)cc(C(F)(F)F)c2C#N)c1	935938-334-R-J1-PDC complex spheroid viability	%	135
COc1ccc([C@@H](O)c2cc(-c3ncnc4cc(N5CCOCC5)ccc34)c(F)cc2Cl)nn1 + COC1C(OC(N)=O)C(O)C(Oc2ccc3c(O)c(NC(=O)c4ccc(O)c(CC=C(C)C)c4)c(=O)oc3c2C)OC1(C)C	935938-334-R-J1-PDC complex spheroid viability	%	95.8

Reported viability, T/C of C#Cc1c(F)ccc2cc(O)cc(-c3ncc4c(N5CC6CCC(C5)N6)nc(OCC56CCCN5CC(F)C6)nc4c3F)c12 (stereo not given) + Nc1ccc(C#CCN(C(=O)Cc2ncc(C(F)(F)F)cc2C(F)(F)F)c2ccc(F)cc2)nn1 : 108
